The measured values listed here are drawn from patent US20220177597A1.

targetUnderTest: human CD98hc ectodomain (recombinant) (human) (UniProt P08195)
Sequence (P08195 206-630): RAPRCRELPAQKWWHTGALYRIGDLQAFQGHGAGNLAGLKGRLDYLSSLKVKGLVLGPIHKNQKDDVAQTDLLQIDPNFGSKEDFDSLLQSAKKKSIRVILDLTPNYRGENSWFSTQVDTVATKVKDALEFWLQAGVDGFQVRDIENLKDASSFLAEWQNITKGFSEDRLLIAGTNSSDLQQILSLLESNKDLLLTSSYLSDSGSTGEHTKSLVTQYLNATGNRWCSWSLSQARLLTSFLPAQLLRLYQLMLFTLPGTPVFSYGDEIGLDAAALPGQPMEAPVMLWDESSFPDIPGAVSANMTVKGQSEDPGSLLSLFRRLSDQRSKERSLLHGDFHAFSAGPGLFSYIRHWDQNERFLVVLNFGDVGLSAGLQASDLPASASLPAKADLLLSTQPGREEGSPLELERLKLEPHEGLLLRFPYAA
methodDescription: ELISA, purified VNAR-Fc titrated on plate-coated CD98hc (1 ug/mL)
Each record here notes measured pEC50.
By convention, pEC50 is the negative base-10 log of a molar concentration.

Worked examples, 4 binders total:
binder	recordedValue
D1 VNAR-hFc fusion (Fc fusion, Bivalent VNAR-Fc, VNAR N-terminal to human IgG1 Fc; Expi293; also called D1-hFc; not shown: human IgG1 Fc (hinge, CH2, CH3) of vector pFUSE-hIgG1e3-Fc2) ARVDQTPQTITKEEGESLTINCVLRHNYSALASTSWYRKKSGSTREETISKGGRYVETVNSGSKSFSLRINDLTVEDSGTYRCNVYGISFIEEKIRYDFDVYGDGTAVTVNA	7.55
F1 VNAR-hFc fusion (Fc fusion, Bivalent VNAR-Fc, VNAR N-terminal to human IgG1 Fc; Expi293; also called Fl; not shown: human IgG1 Fc (hinge, CH2, CH3) of vector pFUSE-hIgG1e3-Fc2) ARVDQTPQTITKEEGESLTINCVLRVHGRALASTSWYRKKSGSTREETISKGGRYVETVNSGSKSFSLRINDLTVEDSGTYRCNVYGLSSGDIEGVKKIDVYGDGTAVTVNA	8.52
F12 VNAR-hFc fusion (Fc fusion, Bivalent VNAR-Fc, VNAR N-terminal to human IgG1 Fc; Expi293; also called F12-hFc; clone F12; not shown: human IgG1 Fc (hinge, CH2, CH3) of vector pFUSE-hIgG1e3-Fc2) ARVDQTPQTITKEEGESLTINCVLRVHGRALASTSWYRKKSGSTREETISKGGRYVETVNSGSKSFSLRINDLTVEDSGTYRCNVYGLSFGDIEGVKKIDVYGDGTAVTVNA	7.92
H6 VNAR-hFc fusion (Fc fusion, Bivalent VNAR-Fc, VNAR N-terminal to human IgG1 Fc; Expi293; not shown: human IgG1 Fc (hinge, CH2, CH3) of vector pFUSE-hIgG1e3-Fc2) ARVDQTPQTITKEEGESLTINCVLRTHSNALASTSWYRKKSGSTREETISKGGRYVETVNSGSKSFSLRINDLTVEDSGTYRCNVYAFLEIQPNIYHEFDVYGDGTAVTVNA	8.22

Lab note: next binder to report on.
Prompt: Given the binder H7 VNAR-hFc fusion (Fc fusion, Bivalent VNAR-Fc, VNAR N-terminal to human IgG1 Fc; Expi293; not shown: human IgG1 Fc (hinge, CH2, CH3) of vector pFUSE-hIgG1e3-Fc2) ARVDQTPQTITKEEGESLTINCVLRYNNPALASTSWYRKKSGSTREETISKGGRYVETVNSGSKSFSLRINDLTVEDSGTYRCNVYFFPSFLVDKLQSHDVYGDGTAVTVNA , what is its reported pEC50?
Completion: 8.22
